molecules and their reported EC50
Biological target: CXCR7 (Homo sapiens (Human), UniProt P25106)
Sequence (P25106 whole entry): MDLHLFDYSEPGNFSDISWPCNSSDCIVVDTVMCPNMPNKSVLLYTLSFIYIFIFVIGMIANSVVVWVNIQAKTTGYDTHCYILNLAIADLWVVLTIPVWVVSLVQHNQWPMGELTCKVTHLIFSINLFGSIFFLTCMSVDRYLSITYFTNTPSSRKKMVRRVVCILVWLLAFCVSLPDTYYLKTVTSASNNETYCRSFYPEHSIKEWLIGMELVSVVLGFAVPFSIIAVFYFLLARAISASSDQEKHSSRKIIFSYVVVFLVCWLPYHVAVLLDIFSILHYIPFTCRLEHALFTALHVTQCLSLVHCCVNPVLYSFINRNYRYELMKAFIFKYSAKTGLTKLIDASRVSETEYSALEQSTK
Sequence (P32121 whole entry partner): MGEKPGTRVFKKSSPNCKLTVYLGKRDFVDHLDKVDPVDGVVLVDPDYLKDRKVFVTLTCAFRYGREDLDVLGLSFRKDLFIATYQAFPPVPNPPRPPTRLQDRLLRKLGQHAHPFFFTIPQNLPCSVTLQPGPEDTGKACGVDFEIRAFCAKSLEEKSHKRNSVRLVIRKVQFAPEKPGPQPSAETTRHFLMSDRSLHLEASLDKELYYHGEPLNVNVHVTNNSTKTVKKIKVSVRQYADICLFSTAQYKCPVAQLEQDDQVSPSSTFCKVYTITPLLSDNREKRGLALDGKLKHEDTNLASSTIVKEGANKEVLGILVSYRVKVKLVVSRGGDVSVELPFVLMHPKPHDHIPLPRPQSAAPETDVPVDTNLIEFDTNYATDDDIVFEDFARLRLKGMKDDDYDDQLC
Assay: PathHunter CHO-K1 CXCR7 b-arrestin assay (agonistic activity)
Settings: PathHunter CHO-K1 CXCR7 b-arrestin cell line
Procedure: The CXCl12 receptor and CXCR7 agonistic activities of the compounds of formula (I) are determined in accordance with the following experimental method. The assay is using the PathHunter™ CHO-K1 CXCR7 b-arrestin cell line from DiscoverX. The system is based on the Enzyme Fragment Complementation Technology. Two complementing fragments of the b-galactosidase enzyme are expressed within stably transfected cells. […]
RESULT_TYPE: EC50 (nM)

{"columns": ["MOLECULE", "ASSAY_SYSTEM", "REPORTED_VALUE"],
 "data": [
  ["CC(C)(C)NC(=O)C1CCN(Cc2cccc(NC(=O)Cc3ccccc3)c2)CC1 [Example 1.259]", "CXCR7 (Homo sapiens (Human), UniProt P25106)", 4],
  ["CC(C)(C)NC(=O)C1CCN(Cc2cccc(NC(=O)c3ccc(S(C)(=O)=O)cc3)c2)CC1 [Example 1.351]", "CXCR7 (Homo sapiens (Human), UniProt P25106)", 176],
  ["O=C(CCc1nc2ccccc2[nH]1)Nc1cccc(CN2CCC(C(=O)NC3CCCCC3)CC2)c1 [Example 1.045]", "CXCR7 (Homo sapiens (Human), UniProt P25106)", 2490],
  ["O=C(Nc1nc(CN2CCC(C(=O)NC3CCCC3)CC2)cs1)c1ccc(Cl)cc1 [Example 1.293]", "CXCR7 (Homo sapiens (Human), UniProt P25106)", 81],
  ["Cc1ccc(C(=O)Nc2cccc(CN3CCC(C(=O)NC4CCCCC4)CC3)c2Cl)s1 [Example 1.163]", "CXCR7 (Homo sapiens (Human), UniProt P25106)", 386],
  ["CC(C)c1ccc(C(=O)Nc2cccc(CN3CCC(C(=O)NC4CCCCC4)CC3)c2)cc1 [Example 1.098]", "CXCR7 (Homo sapiens (Human), UniProt P25106)", 12],
  ["O=C(Nc1cccc(CN2CCC(C(=O)NC3CCCCC3)CC2)c1)c1ncc[nH]1 [Example 1.038]", "CXCR7 (Homo sapiens (Human), UniProt P25106)", 13],
  ["CC(C)CN(C)C(=O)C1CCN(Cc2cccc(NC(=O)c3cncc(C(F)(F)F)c3)c2)CC1 [Example 1.276]", "CXCR7 (Homo sapiens (Human), UniProt P25106)", 6],
  ["CCc1cc(CN2CCC(C(=O)NC(C)(C)C)CC2)cc(NC(=O)c2cccc(C(F)(F)F)n2)c1 [Example 1.329]", "CXCR7 (Homo sapiens (Human), UniProt P25106)", 159],
  ["COc1c(CN2CCC(C(=O)NC(C)(C)C)CC2)cccc1NC(=O)c1cncc(C)c1 [Example 1.320]", "CXCR7 (Homo sapiens (Human), UniProt P25106)", 48],
  ["CC(C)(C)NC(=O)C1CCN(Cc2cccc(NC(=O)Cc3c(C(F)(F)F)ccc(Cl)c3Cl)c2)CC1 [Example 1.251]", "CXCR7 (Homo sapiens (Human), UniProt P25106)", 3],
  ["O=C(Cc1ccccn1)Nc1cccc(CN2CCC(C(=O)NC3CCCCC3)CC2)c1 [Example 1.013]", "CXCR7 (Homo sapiens (Human), UniProt P25106)", 20],
  ["Cc1cncc(C(=O)Nc2cccc(CN3CC[C@H](C(=O)NC4CCCCC4)C[C@@H]3C)c2)c1 (racemic) [Example 2.104]", "CXCR7 (Homo sapiens (Human), UniProt P25106)", 4],
  ["O=C(Nc1cccc(CN2CCC(C(=O)NC3CCCCC3)CC2)c1)c1cccc(Cl)n1 [Example 1.078]", "CXCR7 (Homo sapiens (Human), UniProt P25106)", 1],
  ["CCc1ccc(NC(=O)c2ccc(F)cc2)cc1CN1CCC(C(=O)NC(C)(C)C)CC1 [Example 1.334]", "CXCR7 (Homo sapiens (Human), UniProt P25106)", 17],
  ["O=C(Nc1cccc(CN2CCC(C(=O)NC3CCCCC3)CC2)c1)c1ccsc1 [Example 1.012]", "CXCR7 (Homo sapiens (Human), UniProt P25106)", 4]
]}

Where do these numbers come from? They come from patent US9428456B2.
